# system under test: Bevacizumab (Homo sapiens)
# Construct: fused on or other part: humanised anti-VEGF-A VH domain N-terminal of the gamma-1 constant region (engineered, no UniProt entry)
# measurement description: Microtiter plate chromatography of resins, Bevacizumab whole IgG (bound, yield, selectivity)
# Type: binding, humanized
# condition info: mass of whole IgG Bevacizumab eluted / mass injected
The compounds listed here are annotated with their Bevacizumab IgG Yield (%).
Kindly provide the numeric value in % only, without the unit symbol.

COc1ccc(NC(=O)c2cc(-c3ccccc3)n(C)n2)cc1C(=O)NCCCN: 94

Reported Bevacizumab IgG Yield (%) ( NCCCNC(=O)c1cccc(C(=O)Nc2cc(-c3ccco3)[nH]n2)c1 ) = 95

The reported Bevacizumab IgG Yield (%) of the compound COc1ccc(NC(=O)c2cc(-c3cccs3)n(C)n2)cc1C(=O)NCCCN was 100

Entry COc1ccc(NC(=O)c2nn(CC(O)CO)c3ccccc23)cc1C(=O)NCCCN (racemic) , Bevacizumab IgG Yield (%) reported as 100
